Reference for the values: patent US11566007B2

targetOrTestSystem: KRAS WT (Homo sapiens (Human), UniProt P01116+P62937)
Sequence (P01116-2 other isoform, or with tags, fused parts or gaps): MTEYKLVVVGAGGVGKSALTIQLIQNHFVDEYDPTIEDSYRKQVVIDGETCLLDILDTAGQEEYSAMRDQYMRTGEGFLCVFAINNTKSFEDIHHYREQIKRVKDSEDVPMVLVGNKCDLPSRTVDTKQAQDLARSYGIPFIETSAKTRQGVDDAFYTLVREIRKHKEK
Sequence (P62937 whole entry): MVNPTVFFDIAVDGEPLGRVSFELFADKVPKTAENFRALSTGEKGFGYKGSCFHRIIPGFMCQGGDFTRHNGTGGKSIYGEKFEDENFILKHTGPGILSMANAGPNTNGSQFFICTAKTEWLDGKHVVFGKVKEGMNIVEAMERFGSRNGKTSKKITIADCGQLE
experiment: Ras-Raf (BRAF RBD) disruption / FRET / MOA assay, KRAS WT
Type: biochemical
conditionInfo: read-out: IC50* KRAS WT FRET data
The reader will find reported IC50 values listed item by item below.

>>> measurement("CO[C@@H](C)c1ncc(N2CCN(C)CC2)cc1-c1c2c3cc(ccc3n1CC(F)(F)F)-c1cccc(c1)C[C@H](NC(=O)[C@H](C(C)C)N(C)C(=O)C1(F)CCN(C(=O)C#CC(C)(C)N(C)C)CC1)C(=O)N1CCC[C@H](N1)C(=O)OCC(C)(C)C2 (atropisomer, axis not shown)")
"10 to 100 nM"

Now turn to the next molecule.
Qu. Need IC50, item C=CC(=O)Nc1cnc(C(=O)N(C)[C@H](C(=O)N[C@H]2Cc3cc(O)cc(c3)-c3ccc4c(c3)c(c(-c3cccnc3[C@H](C)OC)n4CC)CC(C)(C)COC(=O)[C@@H]3CCCN(N3)C2=O)C(C)C)n1C (atropisomer, axis not shown)
Ans. 100 to 1000 nM
